- Condition notes: in n-butanol, 308.15 K
Quantity measured: solubility (mole fraction)
A bare number is all that is needed in reply.

Look up solubility (mole fraction) for this molecule: O=c1cc(CO)occ1O
0.00646

====

- Condition notes: in THF, 298.15 K
Quantity measured: solubility (mole fraction)

Can you look up the measured solubility (mole fraction) of O=c1cc(CO)occ1O for me?
0.00799

====

- Condition notes: in acetonitrile, 283.15 K
Quantity measured: solubility (mole fraction)

Given the compound O=c1cc(CO)occ1O , what is its reported solubility (mole fraction)?
0.00078

====

- Condition notes: in acetonitrile, 308.15 K
Quantity measured: solubility (mole fraction)
Give the figure by itself; no unit, no explanation.

Any idea what its solubility (mole fraction) is? The compound is O=c1cc(CO)occ1O
0.00226

====

- Condition notes: in methyl acetate, 313.15 K
Quantity measured: solubility (mole fraction)

What measured solubility (mole fraction) goes with O=c1cc(CO)occ1O ?
0.00385

====

- Condition notes: in THF, 288.15 K
Quantity measured: solubility (mole fraction)
Form rule: numeric answer, no unit written next to it.

Any idea what solubility (mole fraction) was measured for O=c1cc(CO)occ1O ?
0.00541

====

- Condition notes: in sec-butanol, 278.15 K
Quantity measured: solubility (mole fraction)
A bare number is all that is needed in reply.

// lookup solubility (mole fraction) for O=c1cc(CO)occ1O
0.00202

====

- Condition notes: in n-butanol, 293.15 K
Quantity measured: solubility (mole fraction)
Would you mind answering with just the numeric figure?

Endpoint output: solubility (mole fraction) of O=c1cc(CO)occ1O . Value?
0.00364

====

- Condition notes: in sec-butanol, 293.15 K
Quantity measured: solubility (mole fraction)

Can you share its solubility (mole fraction)? I mean this compound: O=c1cc(CO)occ1O
0.00387

====

- Condition notes: in THF, 283.15 K
Quantity measured: solubility (mole fraction)
Note: the reply should be a number with no unit written.

# solubility (mole fraction) lookup, item O=c1cc(CO)occ1O
0.00435

====

- Condition notes: in sec-butanol, 318.15 K
Quantity measured: solubility (mole fraction)
Returns: the value as a bare number; no unit string appended.

// solubility (mole fraction) lookup, key: O=c1cc(CO)occ1O
0.00981

====

- Condition notes: in sec-butanol, 323.15 K
Quantity measured: solubility (mole fraction)
Give the figure only, with no unit attached.

Please look up its solubility (mole fraction): O=c1cc(CO)occ1O
0.0117

====

- Condition notes: in n-pentanol, 293.15 K
Quantity measured: solubility (mole fraction)
Format: numeric value only, no unit, no commentary.

# get_value(readout='solubility (mole fraction)', item= O=c1cc(CO)occ1O )
0.00392

====

- Condition notes: in methyl acetate, 318.15 K
Quantity measured: solubility (mole fraction)
// keep it numeric: no unit symbol after the value

For the molecule shown here, O=c1cc(CO)occ1O , give the reported solubility (mole fraction).
0.00467

====

- Condition notes: in THF, 318.15 K
Quantity measured: solubility (mole fraction)
Returns: the value as a bare number; no unit string appended.

Reported solubility (mole fraction) for O=c1cc(CO)occ1O : what is it?
0.017

====

- Condition notes: in isopropanol, 318.15 K
Quantity measured: solubility (mole fraction)
The response must contain the number and no unit.

Sample O=c1cc(CO)occ1O — what was its solubility (mole fraction)?
0.00974
